Entries annotated with measured IC50
STUDY TARGET: full-length proMMP9(1-707) (SEQ ID NO:1) (Homo sapiens, UniProt P14780, R574P)
Construct: made in house; host or cells: HEK293 (proMMP9, secreted); E. coli (MMP3)
EXPERIMENTAL PROTOCOL: proMMP9/MMP3 P126 Activation Assay
Type: biochemical
CONDITION SUMMARY: 20 nM proMMP9, 20 nM MMP3, 80 min 37° C.
// return numeric value only (unit: µM, not printed)

{"SMILES STRING": "CCOc1ccc(C(=O)O)cc1Nc1nc(-c2sc(N)nc2C)cs1", "UNIT SYMBOL": "µM", "REPORTED": 1.1}
{"SMILES STRING": "Cc1nc(N2CCN(C)CC2)sc1-c1csc(Nc2cc(S(N)(=O)=O)ccc2OC(C)C)n1", "UNIT SYMBOL": "µM", "REPORTED": 0.38}
{"SMILES STRING": "COc1cc(C)c(C(N)=O)cc1Nc1nc(-c2sc(N3CCN(C)CC3)nc2C)cs1", "UNIT SYMBOL": "µM", "REPORTED": 3.6}
{"SMILES STRING": "Cc1nc(C2CCN(C)CC2)sc1-c1csc(Nc2cc(S(N)(=O)=O)ccc2OC(C)C)n1", "UNIT SYMBOL": "µM", "REPORTED": 0.067}
{"SMILES STRING": "CCS(=O)(=O)c1ccc(OC)c(Nc2nc(-c3sc(NC(C)=O)nc3C)cs2)c1", "UNIT SYMBOL": "µM", "REPORTED": 3}
{"SMILES STRING": "CCN1CCCN(C(=O)c2nc(C)c(-c3csc(Nc4cc(C(N)=O)ccc4OC(C)C)n3)s2)CC1", "UNIT SYMBOL": "µM", "REPORTED": 0.31}
{"SMILES STRING": "Cc1nc(C)c(-c2csc(Nc3cc(C#N)ccc3OC(C)C)n2)s1", "UNIT SYMBOL": "µM", "REPORTED": 1}
{"SMILES STRING": "CCN1CCN(C(=O)c2nc(C)c(-c3csc(Nc4cc(C(N)=O)ccc4OC(C)C)n3)s2)CC1", "UNIT SYMBOL": "µM", "REPORTED": 0.13}

IC50 measured on Cc1nc(-c2ccncc2)sc1-c1csc(Nc2cc(C(N)=O)ccc2OC(C)C)n1 = 0.62

IC50 measured on CCOc1ccc(S(N)(=O)=O)cc1Nc1nc(-c2sc(C)nc2C)cs1 = 0.46

IC50 measured on Cc1nc(N)sc1-c1csc(Nc2cc(S(N)(=O)=O)ccc2OC(C)C)n1 = 0.35

IC50 measured on COc1ccc(C(=O)O)cc1Nc1nc(-c2sc(NC(C)=O)nc2C)cs1 = 1.9

IC50 measured on CC(=O)Nc1nc(C)c(-c2csc(Nc3cc(S(N)(=O)=O)ccc3OC(C)C)n2)s1 = 0.75

IC50 measured on Cc1nc(CN2CCCCC2)sc1-c1csc(Nc2cc(C(N)=O)ccc2OC(C)C)n1 = 1.3

IC50 measured on COc1ccc(C(=O)O)cc1Nc1nc(-c2sc(N)nc2C)cs1 = 0.74

----------
STUDY TARGET: proMMP13(1-268) (SEQ ID NO:7) (Homo sapiens)
EXPERIMENTAL PROTOCOL: ThermoFluor binding assay with proMMP13(1-268)
CONDITION SUMMARY: pH 7.0
Entries annotated with measured log10 of Kd
Heads up: the numbers are on a log10 scale; they represent Kd in nM.

// below: answered compounds
{"COMPOUND": "CCOc1ccc(C(N)=O)cc1Nc1nc(-c2sc(N)nc2C)cs1 [Example 7]", "log10 of Kd": 3.15}
{"COMPOUND": "Cc1nc(N)sc1-c1csc(Nc2cc(C(N)=O)ccc2OC(C)C)n1 [Example 2]", "log10 of Kd": 1.91}
{"COMPOUND": "CNC(=O)c1ccc(OC)c(Nc2nc(-c3sc(N)nc3C)cs2)c1 [Example 66]", "log10 of Kd": 3.41}
{"COMPOUND": "Cc1nc(CN2CCCCC2)sc1-c1csc(Nc2cc(C(N)=O)ccc2OC(C)C)n1 [Example 128]", "log10 of Kd": 3.72}
{"COMPOUND": "COc1ccc(-c2ccccc2)cc1Nc1nc(-c2sc(N)nc2C)cs1 [Example 23]", "log10 of Kd": 2.99}
{"COMPOUND": "COc1ccc(C(N)=O)cc1Nc1nc(-c2sc(C)nc2C)cs1 [Example 18]", "log10 of Kd": 4.15}

Readout log10 of Kd for CCOc1ccc(C(N)=O)cc1Nc1nc(-c2sc(C(=O)NC3CCN(C)CC3)nc2C)cs1 [Example 121] , test system proMMP13(1-268) (SEQ ID NO:7) (Homo sapiens), was 3.94

----------
STUDY TARGET: proMMP9(67-444;ΔFnII) (SEQ ID NO:5) (Homo sapiens, UniProt P14780, DEL216-390)
Construct: start methionine (N)
EXPERIMENTAL PROTOCOL: ThermoFluor binding assay with proMMP9(67-444;ΔFnII)
CONDITION SUMMARY: pH 7.0
Entries annotated with measured pKd
Remember the convention: pKd equals -log10 of concentration in molar.

// below: answered compounds
{"COMPOUND": "CC(=O)Nc1nc(C)c(-c2csc(Nc3cc(S(C)(=O)=O)ccc3OC(C)C)n2)s1", "pKd": 6.24}
{"COMPOUND": "COc1ccc(-c2nccs2)cc1Nc1nc(-c2sc(C)nc2C)cs1", "pKd": 4.24}

Now let's try a different one.
pKd measured on CNC(=O)c1ccc(OC)c(Nc2nc(-c3sc(N)nc3C)cs2)c1 = 5.74

----------
STUDY TARGET: full-length proMMP9(1-707) (SEQ ID NO:1) (Homo sapiens, UniProt P14780, R574P)
Construct: made in house; host or cells: HEK293 (proMMP9, secreted); E. coli (MMP3)
EXPERIMENTAL PROTOCOL: proMMP9/MMP3 P126 Activation Assay
Assay type: biochemical
CONDITION SUMMARY: 20 nM proMMP9, 20 nM MMP3, 80 min 37° C.
Experimental: The reaction volume was 50 μL. […] Reactivity of residual MMP3 towards P-126 substrate was minimal under these conditions.
METRIC NAME: IC50 (nM)
// return numeric value only (unit: nM, not printed)

IC50 measured on C=Cc1ccc(OC)c(Nc2nc(-c3sc(C)nc3C)cs2)c1 = 5500

IC50 measured on Cc1nc(C(=O)N(C)C)sc1-c1csc(Nc2cc(C(N)=O)ccc2OC(C)C)n1 = 910

IC50 measured on Cc1nc(Nc2cccnc2)sc1-c1csc(Nc2cc(C(N)=O)ccc2OC(C)C)n1 = 410

IC50 measured on COc1ccc(C(=O)NCc2ccccc2)cc1Nc1nc(-c2sc(NC(C)=O)nc2C)cs1 = 7500

IC50 measured on Cc1nc(N2CCN(C)CC2)sc1-c1csc(Nc2cc(C(N)=O)ccc2OC(C)C)n1 = 100

----------
STUDY TARGET: proMMP9(67-444;ΔFnII) (SEQ ID NO:5) (Homo sapiens, UniProt P14780, DEL216-390)
Construct: start methionine (N)
EXPERIMENTAL PROTOCOL: ThermoFluor binding assay with proMMP9(67-444;ΔFnII)
CONDITION SUMMARY: pH 7.0
Entries annotated with measured Kd
// return numeric value only (unit: nM, not printed)

// below: answered molecules
{"SMILES STRING": "Cc1nc(CN2CCOCC2)sc1-c1csc(Nc2cc(C(N)=O)ccc2OC(C)C)n1", "Kd, nM": 3700}
{"SMILES STRING": "COc1ccc(CC(N)=O)cc1Nc1nc(-c2sc(C)nc2C)cs1", "Kd, nM": 4900}
{"SMILES STRING": "COc1ccc(C#N)cc1Nc1nc(-c2sc(N)nc2C)cs1", "Kd, nM": 310}

Now let's try a different one.
Readout Kd for CCOc1ccc(C(=O)O)cc1Nc1nc(-c2sc(N)nc2C)cs1 , test system proMMP9(67-444;ΔFnII) (SEQ ID NO:5) (Homo sapiens, UniProt P14780, DEL216-390), was 1200

----------
STUDY TARGET: proMMP9(20-445;ΔFnII) (SEQ ID NO:6) (Homo sapiens, UniProt P14780, DEL216-390)
Construct: start methionine (N)
Sequence (P14780 with tags, fused parts or gaps DEL216-390): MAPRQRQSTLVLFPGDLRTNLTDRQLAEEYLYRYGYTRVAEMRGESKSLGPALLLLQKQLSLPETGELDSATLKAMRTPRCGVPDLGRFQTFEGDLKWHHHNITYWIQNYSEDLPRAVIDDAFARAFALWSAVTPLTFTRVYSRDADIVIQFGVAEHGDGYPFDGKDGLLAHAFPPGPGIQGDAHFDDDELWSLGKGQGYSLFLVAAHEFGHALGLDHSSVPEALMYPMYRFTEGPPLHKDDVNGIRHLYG
EXPERIMENTAL PROTOCOL: ThermoFluor binding assay with proMMP9(20-445;ΔFnII)
CONDITION SUMMARY: pH 7.0
METRIC NAME: pKd
Remember the convention: pKd equals -log10 of concentration in molar.

Readout pKd for CC(=O)Nc1nc(C)c(-c2csc(Nc3cccc4ccccc34)n2)s1 [Example 149] , test system proMMP9(20-445;ΔFnII) (SEQ ID NO:6) (Homo sapiens, UniProt P14780, DEL216-390), was 5.30

Readout pKd for Cc1nc(C)c(-c2csc(Nc3cc(S(N)(=O)=O)cc4c3OCC4)n2)s1 [Example 33] , test system proMMP9(20-445;ΔFnII) (SEQ ID NO:6) (Homo sapiens, UniProt P14780, DEL216-390), was 4.89

Readout pKd for Cc1nc(C)c(-c2csc(Nc3cc(C#N)ccc3OC(C)C)n2)s1 [Example 72] , test system proMMP9(20-445;ΔFnII) (SEQ ID NO:6) (Homo sapiens, UniProt P14780, DEL216-390), was 5.07

Readout pKd for Cc1nc(C(=O)N(C)CCN(C)C)sc1-c1csc(Nc2cc(C(N)=O)ccc2OC(C)C)n1 [Example 107] , test system proMMP9(20-445;ΔFnII) (SEQ ID NO:6) (Homo sapiens, UniProt P14780, DEL216-390), was 6.70
